Provide the reported log10 of IC50 of each item.
- targetOrSystem: Serine/threonine-protein kinase B-raf (Homo sapiens, UniProt P15056, V600E)
- Sequence (P15056 2-766 V600E limits assumed): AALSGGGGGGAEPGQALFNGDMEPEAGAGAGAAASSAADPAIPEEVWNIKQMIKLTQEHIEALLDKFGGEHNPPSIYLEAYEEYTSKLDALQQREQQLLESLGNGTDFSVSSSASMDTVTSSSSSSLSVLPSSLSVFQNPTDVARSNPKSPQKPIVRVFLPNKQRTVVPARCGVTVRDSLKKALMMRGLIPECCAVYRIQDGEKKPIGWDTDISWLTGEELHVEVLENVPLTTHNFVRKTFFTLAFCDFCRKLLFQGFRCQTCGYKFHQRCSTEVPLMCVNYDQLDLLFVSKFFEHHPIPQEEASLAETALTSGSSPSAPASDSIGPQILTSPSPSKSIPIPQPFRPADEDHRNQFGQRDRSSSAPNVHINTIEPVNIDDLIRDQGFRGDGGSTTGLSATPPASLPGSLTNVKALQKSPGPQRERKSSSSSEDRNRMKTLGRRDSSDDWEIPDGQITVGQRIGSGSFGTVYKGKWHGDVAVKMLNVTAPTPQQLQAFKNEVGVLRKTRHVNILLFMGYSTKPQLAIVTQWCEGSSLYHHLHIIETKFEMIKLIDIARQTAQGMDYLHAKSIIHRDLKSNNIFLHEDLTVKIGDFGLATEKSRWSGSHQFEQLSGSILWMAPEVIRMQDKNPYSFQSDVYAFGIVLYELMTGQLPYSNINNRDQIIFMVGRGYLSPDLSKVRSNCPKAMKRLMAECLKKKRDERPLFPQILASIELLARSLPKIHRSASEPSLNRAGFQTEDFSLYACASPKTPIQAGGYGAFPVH
- runDescription: Inhibition of B-Raf V600E mutant
For clarity, the numbers are log10 values of IC50 expressed in nM.

Recorded results for 6 molecules are shown here.
>  <inputSmiles>
CC(C)(C)c1cc(NC(=O)Nc2cccc(Oc3ccnc4[nH]c(=O)cnc34)c2)n(-c2ccccc2)n1

>  <targetOrSystem>
Serine/threonine-protein kinase B-raf (Homo sapiens, UniProt P15056, V600E)

>  <valueKind>
log10 of IC50

>  <testValue>
1.76

$$$$
>  <inputSmiles>
Cc1ccc(-n2nc(C(C)(C)C)cc2NC(=O)Nc2ccc(Oc3ccnc4nc(C)c(=O)[nH]c34)c3ccccc23)cc1

>  <targetOrSystem>
Serine/threonine-protein kinase B-raf (Homo sapiens, UniProt P15056, V600E)

>  <valueKind>
log10 of IC50

>  <testValue>
4.23

$$$$
>  <inputSmiles>
O=C(Nc1cc(C(F)(F)F)ccc1F)Nc1ccc(Oc2ccnc3nc(C(F)(F)F)c(=O)[nH]c23)c2ccccc12

>  <targetOrSystem>
Serine/threonine-protein kinase B-raf (Homo sapiens, UniProt P15056, V600E)

>  <valueKind>
log10 of IC50

>  <testValue>
3.03

$$$$
>  <inputSmiles>
Cc1nc2c(Oc3ccc(NC(=O)Nc4cc(C(F)(F)F)ccc4F)c(F)c3)ccnc2[nH]c1=O

>  <targetOrSystem>
Serine/threonine-protein kinase B-raf (Homo sapiens, UniProt P15056, V600E)

>  <valueKind>
log10 of IC50

>  <testValue>
0.48

$$$$
>  <inputSmiles>
Cc1ccc(-n2nc(C(C)(C)C)cc2NC(=O)Nc2cccc(Oc3ccnc4[nH]c(=O)cnc34)c2)cc1

>  <targetOrSystem>
Serine/threonine-protein kinase B-raf (Homo sapiens, UniProt P15056, V600E)

>  <valueKind>
log10 of IC50

>  <testValue>
1.94

$$$$
>  <inputSmiles>
O=C(Nc1ccc(Oc2ccnc3nc(N4CCOCC4)cnc23)cc1F)Nc1cc(C(F)(F)F)ccc1F

>  <targetOrSystem>
Serine/threonine-protein kinase B-raf (Homo sapiens, UniProt P15056, V600E)

>  <valueKind>
log10 of IC50

>  <testValue>
1.99

$$$$

Hi team, please reply with log10 of IC50 for each item in this list.
1. O=C(Nc1cccc(Oc2ccnc3ncc(=O)[nH]c23)c1)c1cccc(OC(F)(F)F)c1
2. O=C(Nc1ccc(Oc2ccnc3[nH]c(=O)cnc23)cc1)Nc1ccc(Cl)c(C(F)(F)F)c1
3. Cn1nc(C(C)(C)C)cc1NC(=O)Nc1ccc(Oc2ccnc3[nH]c(=O)cnc23)cc1F
4. Cc1ccc(-n2nc(C(C)(C)C)cc2NC(=O)Nc2cccc(Oc3ccnc4[nH]c(=O)c(C)nc34)c2)cc1

[2.49, 1.04, 1.23, 2.12]

Hi team, please reply with log10 of IC50 for each item in this list.
1. O=C(Nc1ccc(Oc2ccnc3[nH]nnc23)cc1F)Nc1cc(C(F)(F)F)ccc1F
2. CC(C)(C)c1cccc(C(=O)Nc2cccc(Oc3ccnc4ncc(=O)[nH]c34)c2)c1

1.84
1.53

Hi team, please reply with log10 of IC50 for each item in this list.
1. CSc1cc(Oc2ccnc3ncc(=O)[nH]c23)ccc1NC(=O)Nc1cc(C(C)(C)C)nn1-c1ccccc1
2. CSc1cc(Oc2ccnc3[nH]c(=O)cnc23)ccc1NC(=O)Nc1ccc(Cl)c(C(F)(F)F)c1
3. CC(C)(C)c1cc(NC(=O)Nc2ccc(Oc3ccnc4[nH]c(=O)c(N)nc34)c3ccccc23)n(-c2ccccc2)n1
4. Cc1ccc(-n2nc(C(C)(C)C)cc2NC(=O)Nc2ccc(Oc3ccnc4[nH]c(=O)c(C)nc34)c3ccccc23)cc1

1: 2.65; 2: 0.60; 3: 1.93; 4: 2.00

###

- runDescription: Ratio of Cmax in BALB/cAnNCrl mouse to GI50 for human WM266.4 cells
valueKind: Ratio
Answers are plain numbers.

Recorded results for 3 compounds are shown here.
>  <inputSmiles>
Cc1ccc(-n2nc(C(C)(C)C)cc2NC(=O)Nc2ccc(Oc3ccnc4[nH]c(=O)c(=O)[nH]c34)cc2F)cc1

>  <Ratio>
70

$$$$
>  <inputSmiles>
Cc1ccc(-n2nc(C(C)(C)C)cc2NC(=O)Nc2ccc(Oc3ccnc4[nH]c(=O)cnc34)cc2)cc1

>  <Ratio>
510

$$$$
>  <inputSmiles>
Cc1ccc(-n2nc(C(C)(C)C)cc2NC(=O)Nc2cccc(Oc3ccnc4[nH]c(=O)cnc34)c2)cc1

>  <Ratio>
142

$$$$

API: the following record is the query input.
Any idea what its Ratio is? The compound is CC(C)(C)c1cc(NC(=O)Nc2cccc(Oc3ccnc4[nH]c(=O)cnc34)c2)n(-c2ccccc2)n1
170

###

- runDescription: Tmax in BALB/cAnNCrl mouse at 10 mg/kg, po
- measurementConditions: in vivo
Provide the reported Tmax of each item.
Give bare numbers, in h.

>  <inputSmiles>
Cc1nc2c(Oc3ccc(NC(=O)Nc4cc(C(F)(F)F)ccc4F)c4ccccc34)ccnc2[nH]c1=O

>  <testValue>
3

$$$$
>  <inputSmiles>
Cc1ccc(-n2nc(C(C)(C)C)cc2NC(=O)Nc2ccc(Oc3ccnc4[nH]c(S)nc34)cc2F)cc1

>  <testValue>
3

$$$$
>  <inputSmiles>
CSc1cc(Oc2ccnc3[nH]c(=O)cnc23)ccc1NC(=O)Nc1cc(C(C)(C)C)nn1-c1ccc(C)cc1

>  <testValue>
3

$$$$
>  <inputSmiles>
CC(C)(C)c1cc(NC(=O)Nc2cccc(Oc3ccnc4[nH]c(=O)cnc34)c2)n(-c2ccccc2)n1

>  <testValue>
0.5

$$$$
>  <inputSmiles>
CC(C)(C)c1cc(NC(=O)Nc2ccc(Oc3ccnc4[nH]c(=O)cnc34)c3ccccc23)n(-c2ccccc2)n1

>  <testValue>
0.25

$$$$
>  <inputSmiles>
Cc1ccc(-n2nc(C(C)(C)C)cc2NC(=O)Nc2cccc(Oc3ccnc4[nH]c(=O)cnc34)c2)cc1

>  <testValue>
0.5

$$$$
>  <inputSmiles>
Cc1ccc(-n2nc(C(C)(C)C)cc2NC(=O)Nc2ccc(Oc3ccnc4[nH]c(=O)cnc34)cc2)cc1

>  <testValue>
0.5

$$$$
>  <inputSmiles>
Cc1ccc(-n2nc(C(C)(C)C)cc2NC(=O)Nc2ccc(Oc3ccnc4[nH]c(=O)c(=O)[nH]c34)cc2F)cc1

>  <testValue>
3

$$$$

Any idea what its Tmax is? The compound is Cc1ccc(-n2nc(C(C)(C)C)cc2NC(=O)Nc2ccc(Oc3ccnc4[nH]c(=O)cnc34)cc2F)cc1
3

###

- targetOrSystem: Serine/threonine-protein kinase B-raf (Homo sapiens, UniProt P15056, V600E)
- runDescription: Inhibition of BRAF V600E mutant-mediated ERK phosphorylation in human WM266.4 cells
- Assay type: cell-based
Provide the reported IC50 of each item.
Numbers only, in nM.

>  <inputSmiles>
CC(C)(C)c1cc(NC(=O)c2cccc(Oc3ccnc4[nH]c(=O)cnc34)c2)n(-c2ccccc2)n1

>  <IC50 (nM)>
5000

$$$$

Hi team, please reply with IC50 for each item in this list.
1. Cc1nc2c(Oc3ccc(NC(=O)Nc4cc(C(F)(F)F)ccc4F)c4ccccc34)ccnc2[nH]c1=O
2. CSc1cc(Oc2ccnc3ncc(=O)[nH]c23)ccc1NC(=O)Nc1cc(C(C)(C)C)nn1-c1ccccc1
3. CC(C)(C)c1cc(NC(=O)Nc2cccc(Oc3ccnc4[nH]c(=O)cnc34)c2)n(-c2ccccc2)n1
4. CC(C)(C)c1cccc(C(=O)Nc2cccc(Oc3ccnc4ncc(=O)[nH]c34)c2)c1
5. O=C(Nc1cccc(Oc2ccnc3[nH]c(=O)cnc23)c1)c1cccc(OC(F)(F)F)c1
6. Cc1ccc(-n2nc(C(C)(C)C)cc2NC(=O)Nc2ccc(Oc3ccnc4[nH]c(=O)cnc34)cc2F)cc1
7. O=C(Nc1ccc(Oc2ccnc3[nH]nnc23)cc1F)Nc1cc(C(F)(F)F)ccc1F

[62, 101, 280, 3500, 4000, 24, 24000]

###

- runDescription: Oral bioavailability in BALB/cAnNCrl mouse at 10 mg/kg
- measurementConditions: in vivo
valueKind: bioavailability (%)
Give bare numbers, in %.

>  <inputSmiles>
Cc1ccc(-n2nc(C(C)(C)C)cc2NC(=O)Nc2ccc(Oc3ccnc4[nH]c(=O)cnc34)cc2F)cc1

>  <bioavailability / %>
24

$$$$

Hi team, please reply with bioavailability for each item in this list.
1. Cc1ccc(-n2nc(C(C)(C)C)cc2NC(=O)Nc2ccc(Oc3ccnc4[nH]c(=O)c(=O)[nH]c34)cc2F)cc1
2. Cc1ccc(-n2nc(C(C)(C)C)cc2NC(=O)Nc2ccc(Oc3ccnc4[nH]c(=O)cnc34)cc2)cc1
3. CC(C)(C)c1cc(NC(=O)Nc2ccc(Oc3ccnc4[nH]c(=O)cnc34)c3ccccc23)n(-c2ccccc2)n1

[1, 17, 7]

###

- targetOrSystem: Serine/threonine-protein kinase B-raf (Homo sapiens, UniProt P15056, V600E)
- runDescription: Inhibition of BRAF V600E mutant-mediated ERK phosphorylation in human WM266.4 cells
- Type: cell-based
1 (yes) if IC50 is below 0.6 µM. 0 (no) if not; exact matches included in 0 (no).

>  <inputSmiles>
CC(C)(C)c1cc(NC(=O)Nc2cccc(Oc3ccnc4ncc(=O)[nH]c34)c2)n(-c2ccccc2)n1

>  <classLabel>
0 (no)

$$$$
>  <inputSmiles>
CN1CCN(c2cnc3c(Oc4ccc(NC(=O)Nc5cc(C(F)(F)F)ccc5F)c(F)c4)ccnc3n2)CC1

>  <classLabel>
0 (no)

$$$$
>  <inputSmiles>
CSc1cc(Oc2ccnc3ncc(=O)[nH]c23)ccc1NC(=O)Nc1ccc(Cl)c(C(F)(F)F)c1

>  <classLabel>
0 (no)

$$$$
>  <inputSmiles>
O=C(Nc1cc(C(F)(F)F)ccc1F)Nc1ccc(Oc2ccnc3ncc(=O)[nH]c23)c2ccccc12

>  <classLabel>
0 (no)

$$$$
>  <inputSmiles>
Cc1ccc(-n2nc(C(C)(C)C)cc2NC(=O)Nc2ccc(Oc3ccnc4[nH]c(S)nc34)cc2F)cc1

>  <classLabel>
1 (yes)

$$$$

Given CC(C)(C)c1cc(NC(=O)Nc2ccc(Oc3ccnc4[nH]c(=O)c(=O)[nH]c34)cc2F)n(-c2ccccc2)n1 , is recorded IC50 strictly lower than 0.6 µM?
1 (yes)

Given Cc1nc2nccc(Oc3ccc(NC(=O)Nc4cc(C(C)(C)C)nn4-c4ccccc4)c4ccccc34)c2[nH]c1=O , is recorded IC50 strictly lower than 0.6 µM?
1 (yes)

Given CSc1cc(Oc2ccnc3[nH]c(=O)cnc23)ccc1NC(=O)Nc1cc(C(F)(F)F)ccc1F , is recorded IC50 strictly lower than 0.6 µM?
1 (yes)
